These measurements were taken from ChEMBL document CHEMBL4689842.

system: U2OS; test: Multiplex assay against U2OS; assay type: toxicity, cell-based; settings: human, 12 h, 10 µM, compound concentration 10 uM, replicate 1
Param label: returns 1 when Population Hoechst High Intensity Objects (%) < 6%, returns -1 otherwise, including exact equality.

In: Strictly below 6% in Population Hoechst High Intensity Objects (%)? Cc1cn(-c2cc(NC(=O)c3ccc(C)c(Nc4nccc(-c5cccnc5)n4)c3)cc(C(F)(F)F)c2)cn1
Out: -1

In: Please give the result for O=C(Nc1ccc(Cl)cc1)Nc1cccc(-c2cccc(N3CCCC3)n2)c1 too.
Out: -1

In: Please give the result for COCC(=O)NC/C=C/c1ccc2ncnc(Nc3ccc(Oc4ccc(C)nc4)c(C)c3)c2c1 too.
Out: -1

In: Please give the result for O=C(Nc1ccc(-n2nc(-c3cccnc3)cc2C(F)(F)F)cn1)c1ccc(-c2ccccc2)c(F)c1 too.
Out: -1

In: Please give the result for CCCn1c(=O)c2[nH]c(-c3cnn(Cc4cccc(C(F)(F)F)c4)c3)nc2n(CC)c1=O too.
Out: -1

In: Please give the result for COc1ccc(S(=O)(=O)N(CCO)c2ccccc2CN(C)C/C=C/c2ccc(Cl)cc2)cc1.O=P(O)(O)O too.
Out: 1

In: Please give the result for Cc1ccc2nc(NCCN)c3ncc(C)n3c2c1.O=C(O)C(F)(F)F.O=C(O)C(F)(F)F too.
Out: -1

In: Please give the result for CN1CCN(C(=O)C(C)(C)c2ccc(C(=O)Nc3cn4cc(-c5cc(C(C)(C)C)cc(C(C)(C)C)c5)ccc4n3)cc2)CC1 too.
Out: 1

In: Please give the result for CCn1c(=O)c(-c2ccc(-c3cncs3)cc2Cl)cc2cnc(Nc3ccc(N4CCN(C)CC4)cc3)nc21 too.
Out: -1

In: Please give the result for COc1cc2ncnc(Nc3ccc(F)c(Cl)c3)c2cc1NC(=O)/C=C/CN1CCCCC1 [DACOMITINIB ANHYDROUS] too.
Out: 1

In: Please give the result for CNC(=O)c1ccc(Nc2nc(OC3CCCC3)c3c(-c4ccc5nc(C)oc5c4)c[nH]c3n2)c(OC)c1 too.
Out: 1

In: Please give the result for O=C(Cc1ccc(-c2ccc(OCCN3CCOCC3)cc2)cn1)NCc1ccccc1 too.
Out: -1

In: Please give the result for CCOC(=O)c1c(C)[nH]c2ccc3c(c12)CN1CCc2cc(OC)ccc2C1O3 (stereo not drawn) too.
Out: 1

In: Please give the result for COc1cc(N2CCN(C)CC2)ccc1Nc1ncc2c(n1)N(C)c1ccccc1C(=O)N2C too.
Out: -1

In: Please give the result for CCn1cc(-c2ccnc3[nH]c(-c4cccc(CN(C)C)c4)cc23)c(-c2ccc(NC(=O)N(C)C)cc2)n1 too.
Out: -1

In: Please give the result for COc1ccc(-c2ccc3c(N4CCOCC4)nc(N4C[C@@H](C)O[C@@H](C)C4)nc3n2)cc1CO too.
Out: -1

In: Please give the result for Cc1cc(C)c(S(=O)(=O)N(Cc2ccc(-c3cccc(S(C)(=O)=O)c3)cc2)Cc2ccc(C(F)(F)F)o2)c(C)c1 too.
Out: 1

In: Please give the result for CCN1CCN(Cc2ccc(Nc3ncc(F)c(-c4cc(F)c5nc(C)n(C(C)C)c5c4)n3)nc2)CC1.CS(=O)(=O)O too.
Out: 1

In: Please give the result for S=C(NCCCc1c[nH]cn1)NCCCN(Cc1ccc(Cl)c(Cl)c1)c1ccc(Br)cn1 too.
Out: -1

In: Please give the result for NC(=O)c1cccc(-c2cc(Nc3ccc(OC(F)(F)F)cc3)ncn2)c1 too.
Out: 1

In: Please give the result for O=C(Nc1cccnn1)N1CCC(=Cc2cccc(Oc3ccc(C(F)(F)F)cn3)c2)CC1 too.
Out: 1

In: Please give the result for COC(=N)c1nc2ccc3ncnc(Nc4ccc(OC)cc4F)c3c2s1 too.
Out: 1

In: Please give the result for Cl.O=c1c2cccn2c2ccccc2n1CCCN1CCC(c2ccc(Cl)cc2)CC1 too.
Out: -1

In: Please give the result for CN1C2CCC1CC(OC(c1ccc(F)cc1)c1ccc(F)cc1)C2.Cl (stereo not drawn) too.
Out: 1

In: Please give the result for Cn1nc(C(F)(F)F)cc1-c1cnc(N2CCc3cc(S(=O)(=O)Nc4c(F)cc(Cl)cc4F)cc(N4CCCC4=O)c32)nc1 too.
Out: 1

In: Please give the result for O=C1N/C(=N/c2ccccc2F)S/C1=C\c1ccc(C(=O)O)cc1 too.
Out: 1

In: Please give the result for CCCS(=O)(=O)Nc1ccc(F)c(C(=O)c2c[nH]c3ncc(Cl)cc23)c1F too.
Out: 1

In: Please give the result for C=CCn1c(=O)c2cnc(Nc3ccc(N4CCN(C)CC4)cc3)nc2n1-c1cccc(C(C)(C)O)n1 too.
Out: -1
